measured on: Beta Secretase enzyme (BACE1) (Homo sapiens)
Sequence (P56817 46-501): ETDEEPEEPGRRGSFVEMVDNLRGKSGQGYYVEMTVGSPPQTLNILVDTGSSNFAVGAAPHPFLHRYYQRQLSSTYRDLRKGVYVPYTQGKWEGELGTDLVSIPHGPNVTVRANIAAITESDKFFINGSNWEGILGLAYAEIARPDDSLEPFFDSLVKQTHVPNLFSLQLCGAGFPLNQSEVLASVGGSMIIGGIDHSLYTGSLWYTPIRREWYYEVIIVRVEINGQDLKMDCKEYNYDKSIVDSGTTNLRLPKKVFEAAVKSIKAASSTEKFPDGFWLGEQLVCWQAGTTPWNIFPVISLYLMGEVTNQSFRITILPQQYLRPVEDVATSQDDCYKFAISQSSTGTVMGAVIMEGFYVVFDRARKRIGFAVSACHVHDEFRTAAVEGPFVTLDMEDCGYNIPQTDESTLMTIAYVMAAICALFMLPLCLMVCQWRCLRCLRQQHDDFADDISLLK
test name: In vitro enzymatic BACE FRET assay
Format: biochemical
applied conditions: read-out: BACE1 FRET assay IC50
pIC50: −log10 of the molar value.

# compound, pIC50
records = [
    ("Cc1cc(Cl)cnc1C(=O)Nc1ccc(F)c([C@@]2(C)N=C(N)C3(CC3)S(=O)(=O)[C@H]2F)c1", 9.36),
    ("COc1ccc2nc(C(=O)Nc3ccc(F)c([C@]4(CF)CS(=O)(=O)C(C)(C)C(N)=N4)c3)c(C)n2c1", 6.98),
    ("C[C@@]1(c2cc(N)cnc2F)CS(=O)(=O)C2(CCC2)C(N)=N1", 4.84),
    ("CC1(C)C(N)=N[C@](C)(c2cc(NC(=O)c3ccc(F)cn3)ccc2F)CS1(=O)=O", 8.72),
    ("CC1(C)C(N)=N[C@](CF)(c2cc(NC(=O)c3ncc(Cl)cc3F)ccc2F)CS1(=O)=O", 9.22),
    ("CC1(C)C(N)=N[C@@](C)(c2cc(Nc3noc4cc(Cl)cnc34)ccc2F)CS1(=O)=O", 7.86),
    ("COc1cnc2c(Nc3ccc(F)c([C@]4(C)CS(=O)(=O)C(C)(C)C(N)=N4)c3)cccc2n1", 7.94),
    ("COc1cnc2c(Nc3ccc(F)c([C@]4(C)CS(=O)(=O)C5(CC5)C(N)=N4)c3)nccc2c1", 7.87),
    ("COc1cnc(C(=O)Nc2ccc(F)c(C3(C(F)F)CS(=O)(=O)C(C)(C)C(N)=N3)c2)cn1 (stereo not drawn)", 7.27),
    ("CC1(C)C(N)=N[C@](C)(c2cc(NC(=O)c3ccc(C#N)cn3)ccc2F)CS1(=O)=O", 8.57),
    ("COc1cnc(C(=O)Nc2ccc(F)c([C@]3(C)CS(=O)(=O)C(C)(C)C(N)=N3)n2)cn1", 5.09),
    ("COc1cnc(C(=O)Nc2ccc(F)c([C@]3(C(F)F)CS(=O)(=O)C(C)(C)C(N)=N3)c2)cn1", 7.69),
    ("Cc1cc(Cl)cnc1C(=O)Nc1ccc(F)c([C@]23C[C@H]2S(=O)(=O)C(C)(C)C(N)=N3)c1", 8.62),
    ("CC1(C)C(N)=N[C@](C)(c2cc(NC(=O)c3ncc(Cl)cc3F)ccc2F)CS1(=O)=O", 9.22),
    ("Cc1cc(C(F)F)cnc1C(=O)Nc1ccc(F)c([C@]2(CF)CS(=O)(=O)C3(CCC3)C(N)=N2)c1", 8.85),
]

---

measured on: Cathepsin D (Cat D) (Homo sapiens)
Construct: Recombinant Cat D was expressed in CHO cells; made in house; host or cells: CHO cells
Sequence (P07339 65-412, species assumed): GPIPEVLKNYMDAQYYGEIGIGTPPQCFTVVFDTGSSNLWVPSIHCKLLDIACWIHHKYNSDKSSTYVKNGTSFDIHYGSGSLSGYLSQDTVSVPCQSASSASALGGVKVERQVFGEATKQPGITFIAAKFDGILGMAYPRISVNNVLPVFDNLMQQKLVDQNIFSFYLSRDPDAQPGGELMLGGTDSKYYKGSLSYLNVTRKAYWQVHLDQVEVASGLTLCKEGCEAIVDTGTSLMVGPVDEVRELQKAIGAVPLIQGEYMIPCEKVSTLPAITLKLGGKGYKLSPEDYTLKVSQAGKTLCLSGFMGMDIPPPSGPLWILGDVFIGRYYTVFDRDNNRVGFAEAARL
test name: In vitro enzymatic Cathepsin D (Cat D) FRET assay
Format: biochemical
applied conditions: read-out: CatD IC50
IC50 less than 300 µM is Met; IC50 greater than or equal to 300 µM is Not met.

# molecule, qualitative label
rows = [
    ("COc1cc(F)c2c(Nc3ccc(F)c([C@]4(C)CS(=O)(=O)C(C)(C)C(N)=N4)c3)ncnc2c1 [Example 53]", "Not met"),
    ("CCOc1cnc2c(Nc3ccc(F)c([C@]4(C)CS(=O)(=O)C(C)(C)C(N)=N4)c3)nccc2c1 [Example 422]", "Not met"),
    ("COCc1cc(Cl)cnc1C(=O)Nc1ccc(F)c([C@]2(CF)CS(=O)(=O)C(C)(C)C(N)=N2)c1 [Example 458]", "Not met"),
    ("CC1(C)C(N)=N[C@](C)(c2cc(NC(=O)c3ccc(F)cn3)cnc2F)CS1(=O)=O [Example 399]", "Not met"),
    ("CC(C)(C)Cc1ccc(Oc2ccc(F)c([C@]3(C)CS(=O)(=O)C(C)(C)C(N)=N3)c2)nc1 [Example 257]", "Met"),
    ("NC1=N[C@](CF)(c2cc(Nc3nccc4cc(Cl)cnc34)ccc2F)CS(=O)(=O)C12CCC2 [Example 245]", "Met"),
    ("CCOc1cnc2c(Nc3ccc(F)c([C@]4(CF)CS(=O)(=O)C(C)(C)C(N)=N4)c3)ncc(F)c2c1 [Example 435]", "Not met"),
]
